# target-or-system: Genome polyprotein (dengue virus type 2) (UniProt P29990)
# run-conditions: Thailand/16681/1984, Concentration 150.0 uM, Number of replicates 1.0
assay-metric: inhibition (%)
Just the number please, in %, no unit attached.

// query inhibition value for entry COc1nc(Cl)c(CSc2nc(C)co2)s1
-6.96

// query inhibition value for entry [O-][S@@+](Cc1ncccn1)c1ncccc1Br
-5.36

// query inhibition value for entry c1nnc(SCCCSc2nncs2)s1
-4.63

// query inhibition value for entry NC(=O)c1ccc(Cn2nnc(C=Cc3ccccc3)n2)cc1
4.33

// query inhibition value for entry Clc1snnc1CN1CCC(c2nc3ccccc3o2)CC1
-7.28

// query inhibition value for entry O=S(=O)(c1cccs1)N1CCN(CC=Cc2ccccc2)CC1
-8.18

// query inhibition value for entry FC(F)(F)c1nc(CNCc2cocn2)cs1
-9.44

// query inhibition value for entry O=c1[nH]c(CSc2ccccc2Cl)nc2ccsc12
-7.62

// query inhibition value for entry Cn1ncnc1Sc1nc(C2CCCC2)ns1
-9.35

// query inhibition value for entry O=c1c2ccccc2nnn1CSc1nnc(-c2ccccc2)o1
31.6

// query inhibition value for entry N#Cc1ccc(OCCn2nnn(-c3ccccc3)c2=O)cc1
-4.33

// query inhibition value for entry O=c1ccccn1-c1ncc(Br)cn1
-7.63

// query inhibition value for entry N#Cc1csc(CSc2nnc(C(F)(F)F)s2)n1
-4.46

----------
# target-or-system: Genome polyprotein (dengue virus type 2)
# run-conditions: Thailand/16681/1984, Concentration 100.0 uM, Number of replicates 1.0
Consider the following compounds; for each one, report its inhibition.
Provide the measurement as a number trailed by its unit.

// query inhibition value for entry COc1nc(Cl)c(CSc2nc(C)co2)s1
2.83%

// query inhibition value for entry O=c1ccccn1-c1ncc(Br)cn1
-4.93%

// query inhibition value for entry Brc1cnn(C2CCN(Cc3csnn3)CC2)c1
5.64%

// query inhibition value for entry c1cc(-c2nnc(NCc3nnn[nH]3)s2)no1
-2.38%

// query inhibition value for entry N#Cc1ccc(S(=O)(=O)CCn2nc(-c3ccco3)oc2=O)cc1
5.55%

// query inhibition value for entry Cc1nnsc1Cn1ccc(Br)n1
0.654%

// query inhibition value for entry c1ccc2[nH]c(CC3CCN(Cc4nccs4)CC3)nc2c1
-1.22%

// query inhibition value for entry COc1ccc2c(O)nn(S(=O)(=O)c3ccc(C(=O)O)cc3)c2c1
5.93%

// query inhibition value for entry O=C(O)c1sc2cccnc2c1Br
12%

// query inhibition value for entry c1csc(CSc2nnc(Cn3cncn3)o2)c1
4.46%

// query inhibition value for entry Cn1ncnc1Sc1nc(C2CCCC2)ns1
5.27%

// query inhibition value for entry COC(=O)c1cc2scc(Br)c2[nH]1
11.7%

// query inhibition value for entry C[S@@+]([O-])c1nncn1Cc1ccc(Cl)s1
0.166%

----------
# target-or-system: Genome polyprotein (dengue virus type 2)
# run-conditions: Thailand/16681/1984, Concentration 50.0 uM, Number of replicates 1.0
Consider the following molecules; for each one, report its inhibition.
Just the number please, in %, no unit attached.

// query inhibition value for entry [O-][S@@+](Cc1nc(-c2cccs2)no1)c1cccs1
0.907

// query inhibition value for entry Cc1nnsc1Cn1ccc(Br)n1
-5.41

// query inhibition value for entry N#Cc1ccc(S(=O)(=O)CCn2nc(-c3ccco3)oc2=O)cc1
-4.79

// query inhibition value for entry c1ccc2nc(SCc3cn4ccccc4n3)cnc2c1
-5.61

// query inhibition value for entry O=c1c2ccccc2nnn1CSc1nnc(-c2ccccc2)o1
2.98

----------
# target-or-system: Genome polyprotein (dengue virus type 2) (UniProt P29990)
# run-conditions: Thailand/16681/1984, Concentration 200.0 uM, Number of replicates 1.0
Consider the following molecules; for each one, report its inhibition.

Report inhibition for Brc1ccsc1CSc1cnn[nH]1 tested on Genome polyprotein (dengue virus type 2) (UniProt P29990).
11%

Report inhibition for Brc1cnn(C2CCN(Cc3csnn3)CC2)c1 tested on Genome polyprotein (dengue virus type 2) (UniProt P29990).
5.63%

Report inhibition for Cc1sc2nc(-c3cccs3)[nH]c(=O)c2c1C tested on Genome polyprotein (dengue virus type 2) (UniProt P29990).
-9.15%

Report inhibition for FC(F)(F)c1nc(CNCc2cocn2)cs1 tested on Genome polyprotein (dengue virus type 2) (UniProt P29990).
-3.73%

Report inhibition for Brc1cccc2cn(Cc3ncccn3)nc12 tested on Genome polyprotein (dengue virus type 2) (UniProt P29990).
14.4%

Report inhibition for O=c1c2cccn2cnn1Cc1cnc(Cl)s1 tested on Genome polyprotein (dengue virus type 2) (UniProt P29990).
7.35%

Report inhibition for c1cc(-c2nnc(NCc3nnn[nH]3)s2)no1 tested on Genome polyprotein (dengue virus type 2) (UniProt P29990).
-2.02%

Report inhibition for O=C(NCc1nccs1)c1sccc1Cl tested on Genome polyprotein (dengue virus type 2) (UniProt P29990).
-1.05%

Report inhibition for O=c1ccn(Cc2cc(=O)n3ccccc3n2)c2ccsc12 tested on Genome polyprotein (dengue virus type 2) (UniProt P29990).
4.39%

Report inhibition for Cn1c(Sc2nc3ccccc3o2)nc2sccc2c1=O tested on Genome polyprotein (dengue virus type 2) (UniProt P29990).
-0.609%

Report inhibition for O=c1c2ccccc2nnn1CSc1nnc(-c2ccccc2)o1 tested on Genome polyprotein (dengue virus type 2) (UniProt P29990).
52.5%

Report inhibition for COC(=O)c1cc2scc(Br)c2[nH]1 tested on Genome polyprotein (dengue virus type 2) (UniProt P29990).
7.72%

Report inhibition for N#Cc1ccc(OCCn2nnn(-c3ccccc3)c2=O)cc1 tested on Genome polyprotein (dengue virus type 2) (UniProt P29990).
-2.04%

Report inhibition for COc1ccc2c(O)nn(S(=O)(=O)c3ccc(C(=O)O)cc3)c2c1 tested on Genome polyprotein (dengue virus type 2) (UniProt P29990).
-6.38%

Report inhibition for Cc1nnc(CSc2ncnc3sccc23)o1 tested on Genome polyprotein (dengue virus type 2) (UniProt P29990).
55%

Report inhibition for c1csc(CSc2nnc(Cn3cncn3)o2)c1 tested on Genome polyprotein (dengue virus type 2) (UniProt P29990).
-3.48%

Report inhibition for O=C(O)c1c(Br)sc2nnsc12 tested on Genome polyprotein (dengue virus type 2) (UniProt P29990).
4.97%

Report inhibition for O=c1ccccn1-c1ncc(Br)cn1 tested on Genome polyprotein (dengue virus type 2) (UniProt P29990).
1.63%

Report inhibition for c1ccc(C2CCN(Cc3ccc4nccnc4c3)CC2)nc1 tested on Genome polyprotein (dengue virus type 2) (UniProt P29990).
-1.29%

Report inhibition for C[S@@+]([O-])c1nncn1Cc1ccc(Cl)s1 tested on Genome polyprotein (dengue virus type 2) (UniProt P29990).
-6.67%

Report inhibition for c1csc(-c2nnc(Sc3ncnc4sccc34)o2)c1 tested on Genome polyprotein (dengue virus type 2) (UniProt P29990).
9.38%

Report inhibition for O=C(NCc1ccco1)c1csc(Br)c1 tested on Genome polyprotein (dengue virus type 2) (UniProt P29990).
0.818%

Report inhibition for Cc1nnnn1Cc1ncc(Br)s1 tested on Genome polyprotein (dengue virus type 2) (UniProt P29990).
-5%

Report inhibition for COCc1nn(CC#Cc2ccc(Cl)cc2)c(=O)o1 tested on Genome polyprotein (dengue virus type 2) (UniProt P29990).
2.77%

Report inhibition for Clc1snnc1CN1CCC(c2nc3ccccc3o2)CC1 tested on Genome polyprotein (dengue virus type 2) (UniProt P29990).
8.81%

Report inhibition for NC(=O)c1ccc(Cn2nnc(C=Cc3ccccc3)n2)cc1 tested on Genome polyprotein (dengue virus type 2) (UniProt P29990).
12.7%

Report inhibition for Brc1nc(Br)n(Cc2cscn2)n1 tested on Genome polyprotein (dengue virus type 2) (UniProt P29990).
-1.34%

Report inhibition for COc1nc(Cl)c(CSc2nc(C)co2)s1 tested on Genome polyprotein (dengue virus type 2) (UniProt P29990).
12.2%

Report inhibition for N#Cc1ccc(S(=O)(=O)CCn2nc(-c3ccco3)oc2=O)cc1 tested on Genome polyprotein (dengue virus type 2) (UniProt P29990).
2.14%

Report inhibition for O=S(=O)(c1cccs1)N1CCN(CC=Cc2ccccc2)CC1 tested on Genome polyprotein (dengue virus type 2) (UniProt P29990).
2.78%

Report inhibition for [O-][S@@+](Cc1nc(-c2cccs2)no1)c1cccs1 tested on Genome polyprotein (dengue virus type 2) (UniProt P29990).
5.82%

Report inhibition for c1nnc(SCCCSc2nncs2)s1 tested on Genome polyprotein (dengue virus type 2) (UniProt P29990).
-0.768%

----------
# target-or-system: Genome polyprotein (dengue virus type 2)
# run-conditions: Thailand/16681/1984, Concentration 100.0 uM, Number of replicates 1.0
assay-metric: inhibition (%)
Just the number please, in %, no unit attached.

Report inhibition for COCc1nn(CC#Cc2ccc(Cl)cc2)c(=O)o1 tested on Genome polyprotein (dengue virus type 2).
5.18

Report inhibition for CCSc1nnc(SCCn2nc3ccccn3c2=O)s1 tested on Genome polyprotein (dengue virus type 2).
5.4

Report inhibition for O=c1c2ccccc2nnn1CSc1nnc(-c2ccccc2)o1 tested on Genome polyprotein (dengue virus type 2).
36.2

Report inhibition for Brc1ccsc1CSc1cnn[nH]1 tested on Genome polyprotein (dengue virus type 2).
11.3

Report inhibition for c1ccc(C2CCN(Cc3ccc4nccnc4c3)CC2)nc1 tested on Genome polyprotein (dengue virus type 2).
3.52

Report inhibition for [O-][S@@+](Cc1nc(-c2cccs2)no1)c1cccs1 tested on Genome polyprotein (dengue virus type 2).
3.98

Report inhibition for c1ccc2nc(SCc3cn4ccccc4n3)cnc2c1 tested on Genome polyprotein (dengue virus type 2).
10.2

Report inhibition for NC(=O)c1ccc(Cn2nnc(C=Cc3ccccc3)n2)cc1 tested on Genome polyprotein (dengue virus type 2).
8.5

Report inhibition for O=c1c2cccn2cnn1Cc1cnc(Cl)s1 tested on Genome polyprotein (dengue virus type 2).
0.188

Report inhibition for Brc1nc(Br)n(Cc2cscn2)n1 tested on Genome polyprotein (dengue virus type 2).
2.39

Report inhibition for N#Cc1ccc(OCCn2nnn(-c3ccccc3)c2=O)cc1 tested on Genome polyprotein (dengue virus type 2).
-0.08

Report inhibition for O=c1oc2cccnc2n1CC=Cc1ccccc1 tested on Genome polyprotein (dengue virus type 2).
18.7

Report inhibition for Nc1nc(S(=O)(=O)c2ccccc2)c(Cl)s1 tested on Genome polyprotein (dengue virus type 2).
-1.35
